The reported measurements were obtained from patent US11427541B2.

Assay: in vivo rat PK study, aqueous liquid suspension with 1% HPMC (Example 9)
Settings: in vivo, po, 10 mg/kg, oral 10 mg/kg of Compound 1, 5 mL/kg, suspension in 1% HPMC, read-out: Cmax
// values below are reported Cmax
Measured Property: Cmax (ng/mL)

Molecule: Cc1ccc(NC(=O)[C@H]2CCCN(C(=O)c3c(C)cccc3F)[C@H]2c2ccc(NC3CCCC3)cc2)cc1C(F)(F)F.Cc1ccc(S(=O)(=O)O)cc1 [Tosylate Salt (Form I)]
Recorded Result: 649
--
Molecule: Cc1ccc(NC(=O)[C@H]2CCCN(C(=O)c3c(C)cccc3F)[C@H]2c2ccc(NC3CCCC3)cc2)cc1C(F)(F)F.O=S(=O)(O)c1ccccc1 [Besylate Salt (Form I)]
Recorded Result: 390
